molecular target: human 5-HT4e receptor (Homo sapiens); construct: expressed in transfected cells; host or cells: CHO cells; assay: Binding affinity assay, radioligand [3H]GR 113808 binding in transfected CHO cell membrane homogenates; details: human 5-HT4e receptor in transfected CHO cells, 0.3 nM [3H]GR 113808; read-out: KI (μM or % inhibition)
Sequence (Q13639 1-378 isoform Q13639-5): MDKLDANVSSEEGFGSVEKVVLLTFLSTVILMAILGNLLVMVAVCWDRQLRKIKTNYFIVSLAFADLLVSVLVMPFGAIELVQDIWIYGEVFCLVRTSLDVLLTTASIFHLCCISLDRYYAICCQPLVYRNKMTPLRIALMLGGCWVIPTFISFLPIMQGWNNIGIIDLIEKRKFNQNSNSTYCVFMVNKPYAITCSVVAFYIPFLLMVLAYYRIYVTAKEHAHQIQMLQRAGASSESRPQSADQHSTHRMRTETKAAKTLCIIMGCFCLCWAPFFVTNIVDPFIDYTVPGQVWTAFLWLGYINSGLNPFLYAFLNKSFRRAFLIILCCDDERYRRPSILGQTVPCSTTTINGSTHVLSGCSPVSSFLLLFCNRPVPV
Where a name gives a salt, the structure may show the parent alone.
Labelling: Ki reported below 0.05 µM becomes Fulfilled; at or above becomes Not fulfilled.

Consider CCC(C)n1cc(C(=O)C(=O)NCCN2CCCCC2)c2ccccc21 (centres unmarked) [Example 5, hydrochloride] . Does its Ki lie strictly below 0.05 µM?
Fulfilled

Consider CC(C)n1cc(C(=O)C(=O)NCCN2CCCCC2)c2ccc(N)c(Cl)c21 [Example 9, hydrochloride] . Does its Ki lie strictly below 0.05 µM?
Not fulfilled

Consider CCN(CC)CCNC(=O)C(=O)c1cn(C(C)C)c2ccccc12 [Example 3, hydrochloride] . Does its Ki lie strictly below 0.05 µM?
Fulfilled

====

target: human 5-HT4e receptor (Homo sapiens); construct: expressed in transfected cells; host or cells: CHO cells; assay: Binding affinity assay, radioligand [3H]GR 113808 binding in transfected CHO cell membrane homogenates; conditions: human 5-HT4e receptor in transfected CHO cells, 0.3 nM [3H]GR 113808; read-out: KI (μM or % inhibition)
Where a name gives a salt, the structure may show the parent alone.
ENDPOINT LABEL: Ki (µM)
One number for each entry, in µM.

Look over these answered cases.
Form: Entry = Cc1ccc2c(c1)c(C(=O)C(=O)NCCN1CCCCC1)cn2C(C)C | System = human 5-HT4e receptor (Homo sapiens) | Ki = ____
0.071

Form: Entry = CC(C)CN1CCC(CNC(=O)C(=O)c2cn(C(C)C)c3ccccc23)CC1 | System = human 5-HT4e receptor (Homo sapiens) | Ki = ____
0.016

Form: Entry = CC(C)n1cc(C(=O)C(=O)NCCN2CCCCC2)c2ccccc21 [Example 2, hydrochloride] | System = human 5-HT4e receptor (Homo sapiens) | Ki = ____
0.005

Form: Entry = CC(C)n1cc(C(=O)C(=O)NC2CCN(CCCO)CC2)c2ccccc21 | System = human 5-HT4e receptor (Homo sapiens) | Ki = ____
0.0024

Form: Entry = CC(C)n1cc(C(=O)C(=O)NCCN2CCCC2)c2ccccc21 | System = human 5-HT4e receptor (Homo sapiens) | Ki = ____
0.013

Please state, for each entry, its recorded Ki.
1. COc1ccc2c(c1)c(C(=O)C(=O)NCCN1CCCCC1)cn2C(C)C
2. COCCCN1CCC(NC(=O)C(=O)c2cn(C(C)C)c3ccccc23)CC1 [Example 20, TFA salt]

1: 0.31; 2: 0.0069

====

target: human 5-HT4e receptor (Homo sapiens); construct: expressed in transfected cells; host or cells: CHO cells; test: Binding affinity assay, radioligand [3H]GR 113808 binding in transfected CHO cell membrane homogenates; settings: human 5-HT4e receptor in transfected CHO cells, 0.3 nM [3H]GR 113808; read-out: KI (μM or % inhibition)
Structures can show the parent of a compound that is named as a salt.
ENDPOINT LABEL: Ki (µM)
One number for each entry, in µM.

Look over these answered cases.
Can you look up the measured Ki of CC(C)n1cc(C(=O)C(=O)NCCN2CCCCC2)c2ccc(N)cc21 [Example 8, hydrochloride] for me?
0.75

Can you look up the measured Ki of CCn1cc(C(=O)C(=O)NCCN2CCCCC2)c2ccccc21 [Example 4, hydrochloride] for me?
0.005

Can you look up the measured Ki of CC(C)n1cc(C(=O)C(=O)NCCCN2CCCCC2)c2ccccc21 [Example 1, hydrochloride] for me?
0.007

Can you look up the measured Ki of CC(C)n1cc(C(=O)C(=O)NCCN2CCCCC2)c2cc(Cl)ccc21 [Example 6, hydrochloride] for me?
0.047

Switching to the query record.
Can you look up the measured Ki of CCCN1CCC(NC(=O)C(=O)c2cn(C(C)C)c3ccccc23)CC1 for me?
0.0027
